Each entry below carries its reported pIC50.
STUDY TARGET: Dimer of Gag-Pol polyprotein [514-612] (Human immunodeficiency virus 2, UniProt P04584)
Construct: 514-612
Sequence (P04584 whole entry): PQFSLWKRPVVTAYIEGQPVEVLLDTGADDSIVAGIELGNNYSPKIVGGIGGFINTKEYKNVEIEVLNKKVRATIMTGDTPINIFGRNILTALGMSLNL
EXPERIMENT DESCRIPTION: Protease Inhibition Assay
ASSAY CONDITIONS: pH 5.5; 37 °C
pIC50: −log10 of the molar value.

COMPOUND	pIC50
CCC(CC)NC(=O)C[C@@H](C(=O)NC[C@@H](O)[C@H](Cc1ccccc1)NC(=O)[C@@H](NC(=O)c1ccc2ccccc2n1)C(C)C)C(C)(C)C	7.38
CCC(CC)NC(=O)C[C@@H](C(=O)NC[C@@H](O)[C@H](Cc1ccccc1)NC(=O)[C@@H](NC(=O)c1cnc2ccccc2n1)C(C)O)C(C)(C)C (stereo not given in full)	6.87
CCC(CC)NC(=O)C[C@@H](C(=O)NC[C@@H](O)[C@H](Cc1ccccc1)NC(=O)[C@H](CC(N)=O)NC(=O)c1cnc2ccccc2n1)C(C)(C)C	8.20
CCC(CC)NC(=O)C[C@@H](C(=O)NC[C@@H](O)[C@H](Cc1ccccc1)NC(=O)[C@H](CC(N)=O)NC(=O)c1ccc2ccccc2n1)C(C)(C)C	8.17
CCC(CC)NC(=O)C[C@@H](C(=O)NC[C@@H](O)[C@H](Cc1ccccc1)NC(=O)[C@@H](NC(=O)c1cnc2ccccc2n1)C(C)C)C(C)(C)C	7.42

----------
Each entry below carries its reported pIC50.
STUDY TARGET: Dimer of Gag-Pol polyprotein [489-587] (Human immunodeficiency virus 1)
Construct: 489-587
EXPERIMENT DESCRIPTION: Protease Inhibition Assay
ASSAY CONDITIONS: pH 5.5; 37 °C
pIC50: −log10 of the molar value.
PROPERTY LABEL: pIC50

COMPOUND	NUMERIC VALUE
CCC(CC)NC(=O)C[C@@H](C(=O)NC[C@@H](O)[C@H](Cc1ccccc1)NC(=O)[C@@H](NC(=O)c1cnc2ccccc2n1)C(C)O)C(C)(C)C (some centres undefined)	8.52
CCC(CC)NC(=O)C[C@@H](C(=O)NC[C@@H](O)[C@H](Cc1ccccc1)NC(=O)[C@@H](NC(=O)OCc1ccccc1)C(C)O)C(C)(C)C (some centres undefined)	8.09
CC(C)[C@H](NC(=O)OCc1ccccc1)C(=O)N[C@@H](Cc1ccccc1)[C@H](O)CNC(=O)C1CCCCC1C(=O)NC(C)(C)C (some centres undefined)	6.85
CCC(CC)NC(=O)C[C@@H](C(=O)NC[C@@H](O)[C@H](Cc1ccccc1)NC(=O)[C@@H](NC(=O)c1ccc2ccccc2n1)C(C)O)C(C)(C)C (some centres undefined)	8.44
